- Measured target: KAT6A Full length enzyme (Homo sapiens (Human))
- Sequence (Q92794 other isoform, or with tags, fused parts or gaps): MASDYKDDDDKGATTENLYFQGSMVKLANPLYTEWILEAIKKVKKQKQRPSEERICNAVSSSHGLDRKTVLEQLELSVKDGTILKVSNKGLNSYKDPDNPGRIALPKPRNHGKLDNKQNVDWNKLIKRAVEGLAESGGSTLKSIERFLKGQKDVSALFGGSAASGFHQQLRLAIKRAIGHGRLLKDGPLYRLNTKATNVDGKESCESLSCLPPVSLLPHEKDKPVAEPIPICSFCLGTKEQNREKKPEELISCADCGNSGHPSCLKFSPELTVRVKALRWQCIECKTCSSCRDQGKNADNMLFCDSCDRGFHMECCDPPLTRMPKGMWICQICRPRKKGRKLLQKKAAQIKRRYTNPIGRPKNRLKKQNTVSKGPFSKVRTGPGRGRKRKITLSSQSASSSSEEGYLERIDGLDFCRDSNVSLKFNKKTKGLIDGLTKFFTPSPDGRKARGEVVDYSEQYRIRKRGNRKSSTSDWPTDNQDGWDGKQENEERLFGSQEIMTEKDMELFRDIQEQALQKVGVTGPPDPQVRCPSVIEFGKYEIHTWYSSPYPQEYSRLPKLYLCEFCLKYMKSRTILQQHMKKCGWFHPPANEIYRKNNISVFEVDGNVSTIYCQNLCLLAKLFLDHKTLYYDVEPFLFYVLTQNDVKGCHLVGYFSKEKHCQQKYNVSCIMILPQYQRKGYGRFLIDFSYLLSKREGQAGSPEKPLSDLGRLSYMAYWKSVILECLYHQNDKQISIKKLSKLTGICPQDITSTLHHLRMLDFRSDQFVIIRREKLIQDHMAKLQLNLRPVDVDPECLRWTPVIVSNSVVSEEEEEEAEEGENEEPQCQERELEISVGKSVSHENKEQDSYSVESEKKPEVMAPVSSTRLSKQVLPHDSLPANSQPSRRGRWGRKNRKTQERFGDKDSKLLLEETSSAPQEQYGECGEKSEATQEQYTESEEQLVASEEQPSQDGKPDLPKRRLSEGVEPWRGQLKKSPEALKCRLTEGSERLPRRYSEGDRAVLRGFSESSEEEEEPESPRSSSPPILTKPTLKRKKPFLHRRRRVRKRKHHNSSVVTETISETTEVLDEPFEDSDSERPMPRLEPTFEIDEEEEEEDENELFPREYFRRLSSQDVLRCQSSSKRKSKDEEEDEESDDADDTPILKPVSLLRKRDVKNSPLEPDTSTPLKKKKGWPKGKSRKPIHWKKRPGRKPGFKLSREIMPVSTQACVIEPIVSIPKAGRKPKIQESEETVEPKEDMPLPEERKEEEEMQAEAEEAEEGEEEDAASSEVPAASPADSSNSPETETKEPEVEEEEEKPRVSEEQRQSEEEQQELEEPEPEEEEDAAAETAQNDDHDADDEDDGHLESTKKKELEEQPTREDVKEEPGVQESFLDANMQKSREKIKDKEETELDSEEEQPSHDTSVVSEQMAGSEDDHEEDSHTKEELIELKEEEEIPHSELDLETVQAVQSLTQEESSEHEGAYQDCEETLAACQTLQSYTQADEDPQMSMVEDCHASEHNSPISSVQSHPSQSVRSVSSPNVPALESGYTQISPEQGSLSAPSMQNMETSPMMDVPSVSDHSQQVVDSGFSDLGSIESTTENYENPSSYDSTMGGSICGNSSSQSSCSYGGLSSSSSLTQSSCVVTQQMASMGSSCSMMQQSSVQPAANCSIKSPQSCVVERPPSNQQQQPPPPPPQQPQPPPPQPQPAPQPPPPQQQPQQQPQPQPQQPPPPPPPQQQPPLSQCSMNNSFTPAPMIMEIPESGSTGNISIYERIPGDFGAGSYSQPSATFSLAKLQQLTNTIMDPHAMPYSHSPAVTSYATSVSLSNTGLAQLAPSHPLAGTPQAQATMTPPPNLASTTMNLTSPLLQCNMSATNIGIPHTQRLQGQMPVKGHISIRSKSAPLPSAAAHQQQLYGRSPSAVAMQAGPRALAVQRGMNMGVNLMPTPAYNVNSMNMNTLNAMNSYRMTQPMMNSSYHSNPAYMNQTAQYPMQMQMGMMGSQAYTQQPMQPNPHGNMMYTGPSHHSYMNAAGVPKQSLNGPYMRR
- Experiment notes: KAT6A assay (SAMDI-MS acetylation of H3 1-21 peptide)
- Type: biochemical
- Conditions used: Morrison equation fit; replicate number in parentheses; read-out: KAT6A Ki (nM) (replicate number)

| Molecule | Unit descriptor | Ki |
| --- | --- | --- |
| CCc1cc(Nc2cc3onc(NS(=O)(=O)c4cccc(Oc5ccc(C)cc5)c4)c3cc2OC)n[nH]1 | nM | 52.1 |
| COc1cc2c(NS(=O)(=O)c3c(OC)cc(-c4ncc(CN(C)C)cn4)cc3OC)noc2cc1Nc1cc(C2CC2)n[nH]1 | nM | 0.4 |
| COc1cccc(OC)c1S(=O)(=O)Nc1noc2cc(NC3CCCC3)cc(OC)c12 | nM | 25.6 |
| COc1cc2c(NS(=O)(=O)c3c(OC)cc(C(C)N4CC(F)C4)cc3OC)noc2cc1Nc1cc(C2CC2)[nH]n1 (single isomer, unassigned) [Example 210] | nM | 1.2 |
| CCOc1ccccc1S(=O)(=O)Nc1noc2cc(Nc3cc[nH]n3)c(OC)cc12 | nM | 1.2 |
| COc1cc2c(NS(=O)(=O)c3c(OC)cc(-c4ccccc4)cc3OC)noc2cc1Nc1cc(C2CC2)n[nH]1 | nM | 0.2 |
| COc1cc2c(NS(=O)(=O)c3c(OC)cc(-c4cscn4)cc3OC)noc2cc1Nc1cc(C2CC2)n[nH]1 | nM | 0.7 |
| CCc1cc(Nc2cc3onc(NS(=O)(=O)c4c(OC)cccc4OC)c3cc2OC)nn1C | nM | 0.7 |
| CCc1cc(Nc2cc3onc(NS(=O)(=O)c4c(OC)cc(-c5cnc(C)cn5)cc4OC)c3cc2OC)[nH]n1 | nM | 0.6 |
| COc1cc2c(NS(=O)(=O)c3c(OC)cccc3OC)noc2cc1Nc1cc2n(n1)CCC21CC1 | nM | 17.6 |
| COc1cc2c(NS(=O)(=O)c3c(OC)cccc3OC)noc2cc1Nc1cc(C2CC2)n[nH]1 | nM | 0.8 |
| COc1cc2c(NS(=O)(=O)c3c(OC)cccc3OC)noc2cc1Nc1ccn(C)n1 | nM | 0.7 |
| CCn1nc(Nc2cc3onc(NS(=O)(=O)c4c(OC)cccc4OC)c3cc2OC)cc1C | nM | 5.2 |
| COc1cccc(OC)c1S(=O)(=O)Nc1noc2cc(Nc3ncco3)cc(OC)c12 | nM | 1.9 |
| CCc1ccc(S(=O)(=O)Nc2noc3cc(Nc4cc(CC)[nH]n4)c(OC)cc23)cc1 | nM | 16.3 |

---

- Measured target: KAT8 Full length enzyme (Homo sapiens (Human), UniProt Q9H7Z6)
- Sequence (Q9H7Z6 whole entry): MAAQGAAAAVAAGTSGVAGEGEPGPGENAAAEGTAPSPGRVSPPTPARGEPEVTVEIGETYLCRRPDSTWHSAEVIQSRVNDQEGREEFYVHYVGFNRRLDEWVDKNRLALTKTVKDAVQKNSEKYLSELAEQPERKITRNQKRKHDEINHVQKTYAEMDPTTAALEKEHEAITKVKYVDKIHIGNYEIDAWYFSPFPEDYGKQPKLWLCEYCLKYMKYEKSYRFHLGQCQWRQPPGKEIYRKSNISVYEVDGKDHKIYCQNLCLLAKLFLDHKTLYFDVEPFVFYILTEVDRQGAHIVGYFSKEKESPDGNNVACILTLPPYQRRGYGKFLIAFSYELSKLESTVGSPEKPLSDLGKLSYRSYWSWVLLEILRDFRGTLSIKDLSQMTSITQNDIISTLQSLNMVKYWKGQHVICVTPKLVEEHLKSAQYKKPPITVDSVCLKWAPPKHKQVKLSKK
- Experiment notes: KAT8 assay (SAMDI-MS acetylation of H3 1-21 peptide)
- Type: biochemical
- Conditions used: Morrison equation fit; replicate number in parentheses; read-out: KAT8 Ki (nM) (replicate number)
Measured attribute: Ki

| Compound | Measured target | Measured |
| --- | --- | --- |
| CCOc1cc(C)ccc1S(=O)(=O)Nc1noc2cc(Nc3cc[nH]n3)c(OC)cc12 [Example 29] | KAT8 Full length enzyme (Homo sapiens (Human), UniProt Q9H7Z6) | 1380 nM |
| COc1cc2c(NS(=O)(=O)c3c(OC)cc(-c4ccn(C)n4)cc3OC)noc2cc1Nc1cc(C2CC2C)n[nH]1 (single isomer, unassigned) [Example 242] | KAT8 Full length enzyme (Homo sapiens (Human), UniProt Q9H7Z6) | 439 nM |
| COc1cc(F)ccc1S(=O)(=O)Nc1noc2cc(Nc3cc(C4CC4)n[nH]3)c(F)c(OC)c12 [Example 97] | KAT8 Full length enzyme (Homo sapiens (Human), UniProt Q9H7Z6) | > 13000 nM |
| COc1cc2c(NS(=O)(=O)c3c(OC)cc(C(C)N4CC(F)C4)cc3OC)noc2cc1Nc1cc(C2CC2)[nH]n1 (single isomer, unassigned) [Example 209] | KAT8 Full length enzyme (Homo sapiens (Human), UniProt Q9H7Z6) | 2400 nM |
| COc1cc2c(NS(=O)(=O)c3c(OC)cccc3OC)noc2cc1Nc1ccccn1 [Example 111] | KAT8 Full length enzyme (Homo sapiens (Human), UniProt Q9H7Z6) | > 13000 nM |
| COc1cc2c(NS(=O)(=O)c3c(OC)cccc3OC)noc2cc1Nc1cc[nH]n1 [Example 03] | KAT8 Full length enzyme (Homo sapiens (Human), UniProt Q9H7Z6) | 861 nM |
| COc1cc2c(NS(=O)(=O)c3c(OC)cccc3OC)noc2cc1Nc1cc(C2CCNCC2)n[nH]1 [Example 56] | KAT8 Full length enzyme (Homo sapiens (Human), UniProt Q9H7Z6) | 7220 nM |
| COc1cc2c(NS(=O)(=O)c3c(OC)cccc3OC)noc2cc1Nc1cc(C(C)CCO)[nH]n1 (stereo not drawn) [Example 88] | KAT8 Full length enzyme (Homo sapiens (Human), UniProt Q9H7Z6) | > 13000 nM |
| COc1cc2c(NS(=O)(=O)c3c(OC)cc([C@@H]4COCCO4)cc3OC)noc2cc1Nc1cc(C2CC2)n[nH]1 [Example 145] | KAT8 Full length enzyme (Homo sapiens (Human), UniProt Q9H7Z6) | 1510 nM |
| COc1cc2c(NS(=O)(=O)c3c(OC)cc(-c4ccc(C)cn4)cc3OC)noc2cc1Nc1cc(C2CC2)n[nH]1 [Example 215] | KAT8 Full length enzyme (Homo sapiens (Human), UniProt Q9H7Z6) | 994 nM |
| COc1cc2c(NS(=O)(=O)c3c(OC)cccc3OC)noc2cc1Nc1cc(Cl)n[nH]1 [Example 92] | KAT8 Full length enzyme (Homo sapiens (Human), UniProt Q9H7Z6) | 2100 nM |
| CCc1cc(Nc2cc3onc(NS(=O)(=O)c4c(OC)cc(-c5ccc(C)cn5)cc4OC)c3cc2OC)[nH]n1 [Example 236] | KAT8 Full length enzyme (Homo sapiens (Human), UniProt Q9H7Z6) | 364 nM |
| CCOc1cc(C)c(F)cc1S(=O)(=O)Nc1noc2cc(Nc3cc(C4CC4)n[nH]3)c(F)c(OC)c12 [Example 70] | KAT8 Full length enzyme (Homo sapiens (Human), UniProt Q9H7Z6) | 3880 nM |
| COc1cc2c(NS(=O)(=O)c3ccc(C)cc3OCC(F)F)noc2cc1Nc1cc[nH]n1 [Example 64] | KAT8 Full length enzyme (Homo sapiens (Human), UniProt Q9H7Z6) | 550 nM |
| COc1cc2c(NS(=O)(=O)c3c(OC)cccc3OC)noc2cc1Nc1cc(C2CC(F)(F)C2)[nH]n1 [Example 117] | KAT8 Full length enzyme (Homo sapiens (Human), UniProt Q9H7Z6) | 10000 nM |

---

- Measured target: KAT8 Full length enzyme (Homo sapiens (Human), UniProt Q9H7Z6)
- Experiment notes: KAT8 assay (SAMDI-MS acetylation of H3 1-21 peptide)
- Format: biochemical
- Conditions used: Morrison equation fit; replicate number in parentheses; read-out: KAT8 Ki (nM) (replicate number)
Measured attribute: Ki

| Chem smiles | Measured |
| --- | --- |
| CCn1nc(Nc2cc3onc(NS(=O)(=O)c4c(OC)cccc4OC)c3cc2OC)cc1C1CC1 | > 13000 nM |
| CCn1cnc(Nc2cc3onc(NS(=O)(=O)c4c(OC)cccc4OC)c3cc2OC)n1 | > 16300 nM |
| COc1cc2c(NS(=O)(=O)c3cc(C(C)C)c(C)cc3OC)noc2cc1Nc1cc[nH]n1 | 154 nM |

---

- Measured target: KAT7+JADE1+EAF6+ING5 4 protein complex (Homo sapiens (Human))
- Experiment notes: KAT7 JADE1 assay (SAMDI-MS acetylation of H3 1-21 peptide)
- Assay type: biochemical
- Conditions used: Morrison equation fit; replicate number in parentheses; read-out: KAT7 JADE1 Ki (nM) (replicate number)
Measured attribute: Ki (nM)

| Compound | Unit descriptor | Operator | Measured |
| --- | --- | --- | --- |
| CCc1cc(Nc2cc3onc(NS(=O)(=O)c4cccc(-c5ccc(OC)cc5)c4)c3cc2OC)[nH]n1 [Example 137] | nM | = | 9.7 |
| CCOc1cc(C)c(F)cc1S(=O)(=O)Nc1noc2cc(Nc3cc(C4CC4)n[nH]3)c(F)c(OC)c12 [Example 70] | nM | = | 16.4 |
| COc1cc2c(NS(=O)(=O)c3c(OC)cc(C4CCN([C@@H]5CCOC5)C4)cc3OC)noc2cc1Nc1cc(C2CC2)n[nH]1 (single isomer, unassigned) [Example 161] | nM | = | 5.5 |
| COc1cc2c(NS(=O)(=O)c3c(OC)cc(C4CCN([C@@H]5CCOC5)C4)cc3OC)noc2cc1Nc1cc(C2CC2)n[nH]1 (single isomer, unassigned) [Example 160] | nM | = | 6.9 |
| COc1cc2c(NS(=O)(=O)c3c(OC)cccc3OC)noc2cc1Nc1noc(C)n1 [Example 37] | nM | > | 2340 |
| COc1cccc(OC)c1S(=O)(=O)Nc1noc2cc(Nc3ccon3)cc(OC)c12 [Example 16] | nM | = | 702 |
| CCn1nc(Nc2cc3onc(NS(=O)(=O)c4c(OC)cccc4OC)c3cc2OC)cc1C [Example 74] | nM | = | 483 |
